Below, each entry is listed with its recorded inhibition at 5 µM.
- experimental_system: PDGFR-a (Homo sapiens, UniProt P16234)
- Sequence (P16234 24-1089, species assumed): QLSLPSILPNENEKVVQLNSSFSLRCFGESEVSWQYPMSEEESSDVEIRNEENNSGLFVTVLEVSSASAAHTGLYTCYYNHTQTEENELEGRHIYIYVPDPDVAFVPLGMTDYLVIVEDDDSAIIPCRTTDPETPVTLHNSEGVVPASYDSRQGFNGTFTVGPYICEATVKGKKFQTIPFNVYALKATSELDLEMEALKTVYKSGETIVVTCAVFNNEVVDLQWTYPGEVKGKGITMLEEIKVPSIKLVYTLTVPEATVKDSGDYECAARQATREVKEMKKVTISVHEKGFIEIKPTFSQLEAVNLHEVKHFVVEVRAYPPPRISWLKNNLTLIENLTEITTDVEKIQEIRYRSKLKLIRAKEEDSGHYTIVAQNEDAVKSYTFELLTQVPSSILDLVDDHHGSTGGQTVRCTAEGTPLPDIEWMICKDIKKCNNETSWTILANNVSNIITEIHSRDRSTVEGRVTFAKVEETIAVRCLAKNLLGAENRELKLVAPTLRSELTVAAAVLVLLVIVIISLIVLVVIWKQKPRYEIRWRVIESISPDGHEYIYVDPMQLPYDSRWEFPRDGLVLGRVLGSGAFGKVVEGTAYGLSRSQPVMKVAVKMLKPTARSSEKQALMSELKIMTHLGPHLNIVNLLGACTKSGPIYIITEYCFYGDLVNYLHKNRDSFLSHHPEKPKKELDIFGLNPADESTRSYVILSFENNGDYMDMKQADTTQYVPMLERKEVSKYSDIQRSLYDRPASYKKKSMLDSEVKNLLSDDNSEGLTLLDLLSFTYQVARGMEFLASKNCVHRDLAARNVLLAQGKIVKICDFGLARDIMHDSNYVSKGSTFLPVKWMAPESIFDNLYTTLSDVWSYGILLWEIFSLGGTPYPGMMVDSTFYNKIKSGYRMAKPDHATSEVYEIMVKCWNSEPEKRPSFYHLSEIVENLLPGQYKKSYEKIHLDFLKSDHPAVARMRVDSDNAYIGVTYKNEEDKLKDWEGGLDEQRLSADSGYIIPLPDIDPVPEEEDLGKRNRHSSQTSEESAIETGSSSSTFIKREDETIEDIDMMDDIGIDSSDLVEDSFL
- protocol_details: Kinase panel (mobility shift)
- Type: biochemical
experimental_endpoint: inhibition at 5 µM

> print(dat)
                                   compound  observed.result
1  CSc1nc(C(=O)Nc2ccc(Oc3ccnc(C(=O)NC4COC4)c3)c(F)c2)c(-c2ccc(F)c(F)c2)o1 [Compound 37]            < 50%
2  CNC(=O)c1cc(Oc2ccc(NC(=O)c3nc(SC)oc3-c3ccc(OC)cc3)cc2)ccn1 [Compound 7]            < 50%
3  CSc1nc(C(=O)Nc2ccc(Oc3ccnc(C(=O)NCC(F)(F)F)c3)c(F)c2)c(-c2ccc(F)cc2)o1 [Compound 40]            < 50%
4  CNC(=O)c1cc(Oc2ccc(NC(=O)c3nc(SC)oc3-c3ccc(F)cc3Cl)cc2)ccn1 [Compound 3]        50 to 79%
5  CNC(=O)c1cc(Oc2c(F)cc(NC(=O)c3nc(NC)sc3-c3ccc(F)cc3)cc2F)ccn1 [Compound 19]        50 to 79%
6  CSc1nc(C(=O)Nc2ccc(Oc3ccnc(-c4cnn(C)c4)c3)c(F)c2)c(-c2ccc(F)cc2)o1 [Compound 11]        90 to 94%
7  CNC(=O)c1cc(Oc2ccc(NC(=O)c3nc(SC)oc3-c3ccc(F)cc3F)cc2)ccn1 [Compound 6]            < 50%

###

- experimental_system: TRKB (Homo sapiens)
- Sequence (Q16620 32-822, species assumed): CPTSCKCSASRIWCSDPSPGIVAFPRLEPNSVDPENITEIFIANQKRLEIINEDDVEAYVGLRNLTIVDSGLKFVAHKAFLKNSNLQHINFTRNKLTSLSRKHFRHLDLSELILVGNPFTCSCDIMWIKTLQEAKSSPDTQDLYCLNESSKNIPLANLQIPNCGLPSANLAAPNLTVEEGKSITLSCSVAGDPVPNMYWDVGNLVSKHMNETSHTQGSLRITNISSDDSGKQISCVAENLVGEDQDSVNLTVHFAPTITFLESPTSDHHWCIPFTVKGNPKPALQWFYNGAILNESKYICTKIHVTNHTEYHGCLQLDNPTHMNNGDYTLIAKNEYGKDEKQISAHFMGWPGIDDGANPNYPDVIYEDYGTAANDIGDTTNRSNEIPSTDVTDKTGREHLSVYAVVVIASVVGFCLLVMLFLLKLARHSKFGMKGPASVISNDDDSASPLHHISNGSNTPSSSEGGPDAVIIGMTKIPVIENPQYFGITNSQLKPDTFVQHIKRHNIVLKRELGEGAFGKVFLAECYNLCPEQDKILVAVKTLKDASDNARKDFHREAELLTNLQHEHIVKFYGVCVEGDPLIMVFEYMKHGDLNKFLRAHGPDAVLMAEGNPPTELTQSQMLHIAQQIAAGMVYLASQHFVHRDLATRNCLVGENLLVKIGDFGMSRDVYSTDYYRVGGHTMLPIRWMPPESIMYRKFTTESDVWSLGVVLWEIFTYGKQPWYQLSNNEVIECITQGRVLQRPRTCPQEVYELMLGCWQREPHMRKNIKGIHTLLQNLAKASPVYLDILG
- protocol_details: Kinase panel (mobility shift)
- Format: biochemical
experimental_endpoint: inhibition at 5 µM

> print(dat)
                              sample.smiles  experimental.system  experimental.endpoint  observed.result
1  CNC(=O)c1cc(Oc2ccc(NC(=O)c3nc(COC)oc3-c3ccc(F)cc3)cc2F)ccn1  TRKB (Homo sapiens)     inhibition at 5 µM        80 to 89%
2  CSc1nc(C(=O)Nc2ccc(Oc3ccnc(C(=O)NC4COC4)c3)c(F)c2)c(-c2ccc(F)s2)o1  TRKB (Homo sapiens)     inhibition at 5 µM            < 50%
3  CNC(=O)c1cc(Oc2ccc(NC(=O)c3nc(OC)oc3-c3ccc(F)s3)cc2F)ccn1  TRKB (Homo sapiens)     inhibition at 5 µM            < 50%
4  CSc1nc(C(=O)Nc2ccc(Oc3ccnc(N)c3Cl)c(F)c2)c(-c2ccc(F)cc2)o1  TRKB (Homo sapiens)     inhibition at 5 µM            < 50%

###

- experimental_system: EPH-A6 (Homo sapiens, UniProt Q9UF33)
- Sequence (Q9UF33 23-1036): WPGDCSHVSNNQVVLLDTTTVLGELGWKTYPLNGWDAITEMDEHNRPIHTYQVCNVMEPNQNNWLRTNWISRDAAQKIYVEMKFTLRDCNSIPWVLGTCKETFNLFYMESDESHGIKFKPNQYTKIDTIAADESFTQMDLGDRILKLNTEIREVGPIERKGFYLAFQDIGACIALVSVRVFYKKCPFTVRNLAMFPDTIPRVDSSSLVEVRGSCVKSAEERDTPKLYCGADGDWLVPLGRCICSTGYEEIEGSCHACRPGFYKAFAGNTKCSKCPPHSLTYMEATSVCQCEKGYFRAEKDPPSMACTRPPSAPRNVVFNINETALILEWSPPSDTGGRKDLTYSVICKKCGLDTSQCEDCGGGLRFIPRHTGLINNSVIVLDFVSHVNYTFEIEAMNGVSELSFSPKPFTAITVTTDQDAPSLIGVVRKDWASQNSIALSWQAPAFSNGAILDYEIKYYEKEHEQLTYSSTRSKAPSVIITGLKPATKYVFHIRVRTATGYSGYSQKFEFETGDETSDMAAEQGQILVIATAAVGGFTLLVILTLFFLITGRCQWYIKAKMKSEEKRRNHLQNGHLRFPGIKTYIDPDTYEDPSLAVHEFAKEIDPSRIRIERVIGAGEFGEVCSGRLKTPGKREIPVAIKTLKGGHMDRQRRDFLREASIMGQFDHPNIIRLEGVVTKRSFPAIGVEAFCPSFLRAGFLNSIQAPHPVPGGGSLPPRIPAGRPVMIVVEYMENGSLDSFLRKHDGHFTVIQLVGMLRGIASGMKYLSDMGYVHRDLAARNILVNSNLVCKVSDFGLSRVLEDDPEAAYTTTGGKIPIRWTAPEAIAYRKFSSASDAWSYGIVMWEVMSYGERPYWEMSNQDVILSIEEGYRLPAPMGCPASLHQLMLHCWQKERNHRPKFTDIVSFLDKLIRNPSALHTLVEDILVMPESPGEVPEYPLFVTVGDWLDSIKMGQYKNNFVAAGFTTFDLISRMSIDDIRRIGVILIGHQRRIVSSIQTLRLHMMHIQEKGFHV
- protocol_details: Kinase panel (mobility shift)
- Type: biochemical
experimental_endpoint: inhibition at 5 µM

> print(dat)
                              sample.smiles                    experimental.system  experimental.endpoint  observed.result
1  CNC(=O)c1cc(Oc2c(F)cc(NC(=O)c3nc(NC)sc3-c3ccc(F)cc3)cc2F)ccn1  EPH-A6 (Homo sapiens, UniProt Q9UF33)     inhibition at 5 µM        80 to 89%
2  CNC(=O)c1cc(Oc2ccc(NC(=O)c3nc(OCC(F)(F)F)oc3-c3ccc(F)cc3)cc2F)ccn1  EPH-A6 (Homo sapiens, UniProt Q9UF33)     inhibition at 5 µM        80 to 89%
3  CSc1nc(C(=O)Nc2ccc(Oc3ccnc(C(=O)NC4COC4)c3)c(F)c2)c(-c2ccc(F)cc2)o1  EPH-A6 (Homo sapiens, UniProt Q9UF33)     inhibition at 5 µM        80 to 89%
4  CNC(=O)c1cc(Oc2ccc(NC(=O)c3nc(OC)oc3-c3ccc(F)c(F)c3)cc2F)ccn1  EPH-A6 (Homo sapiens, UniProt Q9UF33)     inhibition at 5 µM        50 to 79%
5  CSc1nc(C(=O)Nc2ccc(Oc3ccnc(C(=O)NC4CCN(C)CC4)c3)c(F)c2)c(-c2ccc(F)cc2)o1  EPH-A6 (Homo sapiens, UniProt Q9UF33)     inhibition at 5 µM        50 to 79%
6  CNC(=O)c1cc(Oc2ccc(NC(=O)c3nc(SC)oc3-c3ccc(OC)cc3)cc2)ccn1  EPH-A6 (Homo sapiens, UniProt Q9UF33)     inhibition at 5 µM            < 50%
7  CNC(=O)c1cc(Oc2ccc(NC(=O)c3nc(SC)oc3-c3ccc(F)cc3Cl)cc2)ccn1  EPH-A6 (Homo sapiens, UniProt Q9UF33)     inhibition at 5 µM        50 to 79%
8  CNC(=O)c1cc(Oc2ccc(NC(=O)c3nc(SC(C)C)oc3-c3ccc(F)cc3)cc2F)ccn1  EPH-A6 (Homo sapiens, UniProt Q9UF33)     inhibition at 5 µM        90 to 94%

###

- experimental_system: DDR2 (Homo sapiens)
- Sequence (Q16832 22-855): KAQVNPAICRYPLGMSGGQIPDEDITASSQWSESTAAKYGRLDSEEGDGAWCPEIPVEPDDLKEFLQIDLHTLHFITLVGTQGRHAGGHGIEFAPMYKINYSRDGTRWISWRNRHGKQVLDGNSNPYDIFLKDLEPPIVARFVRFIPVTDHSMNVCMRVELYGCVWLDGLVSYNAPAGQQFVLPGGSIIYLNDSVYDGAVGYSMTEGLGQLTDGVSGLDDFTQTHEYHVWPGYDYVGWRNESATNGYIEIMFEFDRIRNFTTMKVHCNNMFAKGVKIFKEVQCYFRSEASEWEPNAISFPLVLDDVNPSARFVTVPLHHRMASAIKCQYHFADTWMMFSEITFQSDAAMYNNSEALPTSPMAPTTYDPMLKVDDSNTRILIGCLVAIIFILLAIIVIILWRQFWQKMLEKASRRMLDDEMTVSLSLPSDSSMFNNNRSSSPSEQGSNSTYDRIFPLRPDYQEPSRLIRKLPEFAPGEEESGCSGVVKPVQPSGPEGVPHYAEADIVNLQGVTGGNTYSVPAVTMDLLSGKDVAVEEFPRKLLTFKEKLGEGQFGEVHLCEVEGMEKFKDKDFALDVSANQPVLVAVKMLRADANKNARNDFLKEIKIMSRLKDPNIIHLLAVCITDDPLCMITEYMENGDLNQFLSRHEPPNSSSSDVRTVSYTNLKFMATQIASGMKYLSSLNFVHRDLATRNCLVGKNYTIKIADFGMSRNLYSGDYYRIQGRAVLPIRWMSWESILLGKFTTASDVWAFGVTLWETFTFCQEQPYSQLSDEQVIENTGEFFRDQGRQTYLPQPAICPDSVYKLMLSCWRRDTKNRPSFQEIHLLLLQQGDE
- protocol_details: Kinase panel (mobility shift)
- Type: biochemical
experimental_endpoint: inhibition at 5 µM

> print(dat)
                                    compound  experimental.system  observed.result
 1  CSc1nc(C(=O)Nc2ccc(Oc3ccnc(C(=O)NC4COC4)c3)c(F)c2)c(-c2ccc(F)c(F)c2)o1 [Compound 37]  DDR2 (Homo sapiens)            < 50%
 2  CNC(=O)c1cc(Oc2ccc(NC(=O)c3nc(OCC(F)(F)F)oc3-c3ccc(F)cc3)cc2F)ccn1 [Compound 38]  DDR2 (Homo sapiens)        50 to 79%
 3  CNC(=O)c1cc(Oc2ccc(NC(=O)c3nc(COC)oc3-c3ccc(F)cc3)cc2F)ccn1 [Compound 30]  DDR2 (Homo sapiens)        90 to 94%
 4  CNC(=O)c1cc(Oc2ccc(NC(=O)c3nc(NC)sc3-c3ccc(F)cc3C)cc2F)ccn1 [Compound 23]  DDR2 (Homo sapiens)        50 to 79%
 5  CNC(=O)c1cc(Oc2ccc(NC(=O)c3nc(SC)oc3-c3ccc(F)cc3F)cc2)ccn1 [Compound 6]  DDR2 (Homo sapiens)        80 to 89%
 6  CNC(=O)c1cc(Oc2c(F)cc(NC(=O)c3nc(NC)sc3-c3ccc(F)cc3)cc2F)ccn1 [Compound 19]  DDR2 (Homo sapiens)        80 to 89%
 7  CSc1nc(C(=O)Nc2ccc(Oc3ccnc(C(=O)NC4COC4)c3)c(F)c2)c(-c2ccc(F)cc2)o1 [Compound 31]  DDR2 (Homo sapiens)        50 to 79%
 8  CNC(=O)c1cc(Oc2ccc(NC(=O)c3nc(S(C)(=O)=O)sc3-c3ccc(F)cc3)cc2F)ccn1 [Compound 13]  DDR2 (Homo sapiens)        80 to 89%
 9  CSc1nc(C(=O)Nc2ccc(Oc3cc4cnn(C)c4cc3Br)c(F)c2)c(-c2ccc(F)cc2)o1 [Compound 2]  DDR2 (Homo sapiens)        50 to 79%
10  CSc1nc(C(=O)Nc2ccc(Oc3ccnc(C(=O)NCC(F)(F)F)c3)c(F)c2)c(-c2ccc(F)cc2)o1 [Compound 40]  DDR2 (Homo sapiens)        50 to 79%
11  CNC(=O)c1cc(Oc2ccc(NC(=O)c3nc(NC)sc3-c3ccc(F)cc3F)cc2F)ccn1 [Compound 21]  DDR2 (Homo sapiens)        50 to 79%
12  CNC(=O)c1cc(Oc2ccc(NC(=O)c3nc(SC)oc3-c3ccc(Cl)s3)cc2)ccn1 [Compound 5]  DDR2 (Homo sapiens)        80 to 89%
13  [2H]C([2H])([2H])NC(=O)c1cc(Oc2ccc(NC(=O)c3nc(SC)oc3-c3ccc(F)c(F)c3)cc2F)ccn1 [Compound 33]  DDR2 (Homo sapiens)        80 to 89%
14  COc1nc(C(=O)Nc2ccc(Oc3ccnc(C(=O)NC4COC4)c3)c(F)c2)c(-c2ccc(F)cc2)o1 [Compound 39]  DDR2 (Homo sapiens)        50 to 79%
15  CNC(=O)c1cc(Oc2ccc(NC(=O)c3nc(SC(C)C)oc3-c3ccc(F)cc3)cc2F)ccn1 [Compound 34]  DDR2 (Homo sapiens)        50 to 79%
16  CNC(=O)c1cc(Oc2ccc(NC(=O)c3nc(OC)oc3-c3ccc(F)s3)cc2F)ccn1 [Compound 25]  DDR2 (Homo sapiens)        50 to 79%
17  CSc1nc(C(=O)Nc2ccc(Oc3ccnc(C(=O)NC4CCN(C)CC4)c3)c(F)c2)c(-c2ccc(F)cc2)o1 [Compound 42]  DDR2 (Homo sapiens)        50 to 79%
18  CNC(=O)c1cc(Oc2ccc(NC(=O)c3nc(SC)oc3-c3ccc(F)c(F)c3)cc2)ccn1 [Compound 4]  DDR2 (Homo sapiens)        80 to 89%
19  CNC(=O)c1cc(Oc2ccc(NC(=O)c3nc(OC4CC4)oc3-c3ccc(F)cc3)cc2F)ccn1 [Compound 32]  DDR2 (Homo sapiens)        80 to 89%
20  CNC(=O)c1cc(Oc2ccc(NC(=O)c3nc(C4CC4)oc3-c3ccc(F)cc3)cc2F)ccn1 [Compound 26]  DDR2 (Homo sapiens)        80 to 89%
21  CNC(=O)c1cc(Oc2ccc(NC(=O)c3nc(SC)oc3-c3ccc(F)cc3Cl)cc2)ccn1 [Compound 3]  DDR2 (Homo sapiens)        80 to 89%
22  CSc1nc(C(=O)Nc2ccc(Oc3ccnc(-c4cnn(C)c4)c3)c(F)c2)c(-c2ccc(F)cc2)o1 [Compound 11]  DDR2 (Homo sapiens)            ≥ 95%
23  CNC(=O)c1cc(Oc2ccc(NC(=O)c3nc(OC)oc3-c3ccc(F)c(F)c3)cc2F)ccn1 [Compound 24]  DDR2 (Homo sapiens)        80 to 89%
24  CNC(=O)c1cc(Oc2ccc(NC(=O)c3nc(SC)oc3-c3ccc(F)cc3F)cc2F)ccn1 [Compound 12]  DDR2 (Homo sapiens)        80 to 89%
25  CNC(=O)c1cc(Oc2ccc(NC(=O)c3nc(NC)oc3-c3ccc(F)cc3)cc2F)ccn1 [Compound 14]  DDR2 (Homo sapiens)            ≥ 95%
26  CSc1nc(C(=O)Nc2ccc(Oc3ccnc(N)c3Cl)c(F)c2)c(-c2ccc(F)cc2)o1 [Compound 1]  DDR2 (Homo sapiens)        50 to 79%
27  [2H]C([2H])([2H])NC(=O)c1cc(Oc2ccc(NC(=O)c3nc(SC)oc3-c3ccc(F)s3)cc2F)ccn1 [Compound 35]  DDR2 (Homo sapiens)        50 to 79%
28  CNC(=O)c1cc(Oc2ccc(NC(=O)c3nc(OC)oc3-c3ccc(F)cc3)cc2F)ccn1 [Compound 15]  DDR2 (Homo sapiens)        90 to 94%
29  CNC(=O)c1cc(Oc2ccc(NC(=O)c3nc(NC)oc3-c3ccc(F)s3)cc2F)ccn1 [Compound 17]  DDR2 (Homo sapiens)        50 to 79%
30  CNC(=O)c1cc(Oc2ccc(NC(=O)c3nc(SC)oc3-c3ccc(OC)cc3)cc2)ccn1 [Compound 7]  DDR2 (Homo sapiens)        80 to 89%
